I'd be grateful if you could share measured Ki for these entries.
- measurementTarget: PgiγCA
- Construct: gene PgiCA; recombinant, obtained in-house
- assayExplanation: stopped-flow CO2 hydration
- Assay type: biochemical, Porphyromonas gingivalis
- experimentalConditions: pH […] HEPES, […] Na2SO4, […] min preincubation, r.t.; read-out: KI (nM) * / Bacterial Isoforms / Pgi γCA
Use nM as the unit, but write only the number.

Write down the reported Ki (system: PgiγCA) of `COc1ccc(O)c(/N=N/c2ccc(S(N)(=O)=O)cc2)c1`
3440

Give reported Ki for `Cc1cc(O)cc(C)c1/N=N/c1ccc(S(N)(=O)=O)cc1` (PgiγCA)
939

Check PgiγCA data and give Ki for `COc1cc(O)ccc1/N=N/c1ccc(S(N)(=O)=O)cc1` .
2000

Would you please give the reported Ki of `Cc1cc(O)ccc1/N=N/c1ccc(S(N)(=O)=O)cc1` with PgiγCA?
914

---

For each record, write down the corresponding Ki.
- measurementTarget: HpβCA (Helicobacter pylori)
- Construct: gene cynT; recombinant, obtained in-house
- Sequence (Q9ZN54 whole entry): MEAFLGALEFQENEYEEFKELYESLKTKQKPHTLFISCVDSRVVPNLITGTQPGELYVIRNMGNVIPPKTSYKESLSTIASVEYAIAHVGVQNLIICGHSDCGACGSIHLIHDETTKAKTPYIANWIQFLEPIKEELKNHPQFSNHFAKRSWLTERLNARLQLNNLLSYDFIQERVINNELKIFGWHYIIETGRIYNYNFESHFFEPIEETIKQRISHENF
- assayExplanation: stopped-flow CO2 hydration
- Assay type: biochemical
- experimentalConditions: read-out: KI (nM) * / Bacterial Isoforms / Hp βCA
Returns: string containing the numeric result and its unit.

// fetch Ki given entry `Cc1cc(O)ccc1/N=N/c1ccc(S(N)(=O)=O)cc1`
138 nM

Input `Cc1cc(/N=N/c2ccc(S(N)(=O)=O)cc2)ccc1O` , output reported Ki.
119 nM

// fetch Ki given entry `COc1cc(O)ccc1/N=N/c1ccc(S(N)(=O)=O)cc1`
17.1 nM

Look up and report measured Ki for this entry: `NS(=O)(=O)c1ccc(/N=N/c2ccc(O)cc2C(F)(F)F)cc1`
68.8 nM

Return value of Ki for input `NS(=O)(=O)c1ccc(/N=N/c2ccc(O)c(C(F)(F)F)c2)cc1` , no commentary.
19.4 nM

Look up and report measured Ki for this entry: `Cc1cc(O)cc(C)c1/N=N/c1ccc(S(N)(=O)=O)cc1`
74.3 nM

---

- measurementTarget: hCA IX (Homo sapiens, UniProt Q16790)
- Construct: gene CA9
- assayExplanation: stopped-flow CO2 hydration
- Type: biochemical
- experimentalConditions: read-out: KI (nM) * / Human Isoforms / hCA IX
propertyName: Ki (nM)
Numbers only; they are read as nM.

Name the recorded Ki of the item Cc1ccc(O)c(/N=N/c2ccc(S(N)(=O)=O)cc2)c1 [4h] in your answer.
184

Give the value of Ki reported for the following: Cc1cc(/N=N/c2ccc(S(N)(=O)=O)cc2)ccc1O [4i]
181

Report Ki for Cc1cc(O)cc(C)c1/N=N/c1ccc(S(N)(=O)=O)cc1 [4g]
171

State, in one line, measured Ki of Cc1cc(/N=N/c2ccc(S(N)(=O)=O)cc2)c(C)cc1O [4f]
97.1

Given COc1cc(O)ccc1/N=N/c1ccc(S(N)(=O)=O)cc1 [4c] , respond with its Ki.
545

Specify Ki for COc1ccc(O)c(/N=N/c2ccc(S(N)(=O)=O)cc2)c1 [4a] and stop.
201

Using known records, supply Ki for Cc1cc(O)ccc1/N=N/c1ccc(S(N)(=O)=O)cc1 [4j]
213

Report measured Ki; entry is NS(=O)(=O)c1ccc(/N=N/c2ccc(O)c(C(F)(F)F)c2)cc1 [4d]
182
